All figures here come from paper PMC11931565.

# Tested on: S. cerevisiae Y2301 overexpressed ScCYP51 Y140F
# Assay Overview: MIC, recombinant S. cerevisiae strain Y2301 Y140F
# Type: cell-based
# Measurement Setup: Saccharomyces cerevisiae, pH 6.8, read-out: MIC Y2301 Y140F
Numbered stars: 1 amine (or outer) side, 2 acyl side, 3 side chain; on linkers, the order of the positions; unused ones are H or OH. Bridge positions count the residues as written; N and C are the ends. Square brackets hold non-standard residues; d marks the D form. Peptide text beside a SMILES is read from it. * marks the point of attachment. hTyr(3S-OH,4S-OH,3'-OSO3H) = N[C@H](C(=O)O)[C@H](O)[C@@H](O)c1ccc(O)c(OS(=O)(=O)O)c1; Orn(4R-OH,5R-OH) = O=C([C@H](C[C@@H](O)[C@@H](O)N[*:3])N[*:1])[*:2]; Pro(3S-OH,4S-Me) = C[C@H]1CN[C@H](C(=O)O)[C@H]1O; X1 = CCCCCOc1ccc(-c2cc(-c3ccc(C(=O)*)cc3)no2)cc1; Gln(3R-OH) = NC(=O)C[C@@H](O)[C@H](N)C(=O)O; Hyp = O=C(O)[C@@H]1C[C@@H](O)CN1
Mark t only for MIC values smaller than 4 µg/mL; exact matches and larger values are f.

Q. hey, is MIC for CCCCCOc1ccc(-c2cc(-c3ccc(C(=O)N[C@H]4C[C@@H](O)[C@@H](O)NC(=O)[C@@H]5[C@@H](O)[C@@H](C)CN5C(=O)[C@H]([C@H](O)CC(N)=O)NC(=O)[C@H]([C@H](O)[C@@H](O)c5ccc(O)c(OS(=O)(=O)O)c5)NC(=O)[C@@H]5C[C@@H](O)CN5C(=O)[C@H]([C@@H](C)O)NC4=O)cc3)no2)cc1 [Micafungin, reference compound] (X1-[Orn(4R-OH,5R-OH)]T[Hyp][hTyr(3S-OH,4S-OH,3'-OSO3H)][Gln(3R-OH)][Pro(3S-OH,4S-Me)]; lactam 1-C) lower than 4 µg/mL or not?
A. t

Q. State whether 4 µg/mL exceeds MIC recorded for O=C(NCC(O)(Cn1cncn1)c1ccc(Cl)cc1Cl)c1ccc(NC(=O)c2ccc(Cl)cc2)cc1 (stereo not drawn) [13b] .
A. t

Q. MIC under 4 µg/mL? Item: OC(Cn1cncn1)(Cn1cncn1)c1ccc(F)cc1F [FLZ, Fluconazole, reference compound]
A. f

We now examine a further compound.
Q. Consider CC[C@@H]([C@H](C)O)n1ncn(-c2ccc(N3CCN(c4ccc(OC[C@@H]5CO[C@@](Cn6cncn6)(c6ccc(F)cc6F)C5)cc4)CC3)cc2)c1=O [PCZ, posaconazole, reference compound] . Does its MIC lie strictly below 4 µg/mL?
A. t

----------
# Study System: C. albicans CYP51 (CaCYP51) (Candida albicans, UniProt P10613)
# Sequence (P10613 whole entry): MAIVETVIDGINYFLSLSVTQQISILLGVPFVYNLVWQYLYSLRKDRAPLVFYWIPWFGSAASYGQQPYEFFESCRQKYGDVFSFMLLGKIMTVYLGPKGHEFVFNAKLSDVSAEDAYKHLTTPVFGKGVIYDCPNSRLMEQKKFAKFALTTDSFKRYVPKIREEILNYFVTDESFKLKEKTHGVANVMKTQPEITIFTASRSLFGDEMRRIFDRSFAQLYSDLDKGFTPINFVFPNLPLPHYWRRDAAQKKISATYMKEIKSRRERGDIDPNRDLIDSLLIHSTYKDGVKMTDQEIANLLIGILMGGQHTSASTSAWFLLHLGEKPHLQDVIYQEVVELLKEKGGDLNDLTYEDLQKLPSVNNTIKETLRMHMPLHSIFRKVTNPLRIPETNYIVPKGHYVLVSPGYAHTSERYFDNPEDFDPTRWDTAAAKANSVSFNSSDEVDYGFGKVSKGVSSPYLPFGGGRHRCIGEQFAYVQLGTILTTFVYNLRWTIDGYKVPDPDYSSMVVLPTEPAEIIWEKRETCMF
What pIC50 was measured for each of the following?
One number for each entry, as −log10 of the molar value.

Recorded pIC50 (molecule O=C(NCC(O)(Cn1cncn1)c1ccc(Cl)cc1Cl)c1csc(Cl)n1 (stereo not drawn) ): 6.39

Record summary for O=C(NCC(O)(Cn1cncn1)c1ccc(Cl)cc1)c1ccc(NC(=O)c2ccc(Cl)cc2)cc1 (stereo not drawn) [13a] : reported pIC50 = 6.25

Then there is this molecule:
Just so you know, measured pIC50 for CC(=O)c1cccc(C(=O)NCC(O)(Cn2cncn2)c2ccc(Cl)cc2)c1 (stereo not drawn) came out at 5.89
